The origin of these recorded values is the Immune Epitope Database (IEDB).

biological target: HLA-A*02:17; assay: IEDB peptide-MHC binding, purified MHC/competitive/radioactivity; filed as Kd, often an IC50 or EC50 that approximates it; bounds were set here for any values at or beyond the usual limits of such assays; settings: source organism: Dengue virus 2 Jamaica/1409/1983
// values below are reported Kd
Answer format: numeric, nM implied, no suffix.

Guide cases for Kd, answers given:
Item under review: IMAAILAYTI . Reported Kd? 1600

// query Kd value for entry IILEFFLIVL 802

// lookup Kd for LLLTLLATV 157

Next:
Name the reported Kd value associated with the sequence YMWLGARFL 94.2

====

target: HLA-A*03:01; assay: IEDB peptide-MHC binding, purified MHC/competitive/radioactivity; filed as Kd, often an IC50 or EC50 that approximates it; bounds were set here for any values at or beyond the usual limits of such assays; conditions: source organism: Vaccinia virus Copenhagen
metric: pKd
In plain terms, pKd is the concentration in mol/L turned into minus its base-10 logarithm.

May I ask what pKd has been recorded for NTFPNITLK ? 7.27

Let us move to another entry and its pKd.
Name the recorded pKd for MLIYSMWGK . 7.97

====

biological target: HLA-B*35:01; experiment: IEDB peptide-MHC binding, purified MHC/direct/fluorescence; filed as Kd, often an IC50 or EC50 that approximates it; bounds were set here for any values at or beyond the usual limits of such assays; conditions: source organism: Burkholderia mallei ATCC 23344
metric: Kd (nM)
Number only, in nM; omit the unit.

For the sequence shown here, AMYAPYGPF , give the reported Kd. 1880

====

target: HLA-A*24:03; assay: IEDB peptide-MHC binding, purified MHC/competitive/fluorescence; filed as Kd, often an IC50 or EC50 that approximates it; bounds were set here for any values at or beyond the usual limits of such assays; conditions: source organism: Influenza A virus
metric: pKd
Recall that pKd is obtained by taking minus log10 of the concentration measured in molar.

Query for HLA-A*24:03: what pKd does the record show for CYPYDVPDY ? 6.65

====

biological target: HLA-A*03:01; experiment: IEDB peptide-MHC binding, purified MHC/competitive/fluorescence; bounds were set here for any values at or beyond the usual limits of such assays; details: source organism: Sudan ebolavirus
metric: pIC50
Please keep in mind that pIC50 is minus log10 of the molar concentration; only the number is needed.

// lookup pIC50 for HLASTDQLK 4.57

====

target: HLA-B*57:01; assay: IEDB peptide-MHC binding, purified MHC/direct/fluorescence; filed as Kd, often an IC50 or EC50 that approximates it; bounds were set here for any values at or beyond the usual limits of such assays; details: source organism: Escherichia coli O157:H7 str. EC869
metric: Kd

GET /values?readout=Kd&item= ETIGLVRAL ≥ 20 µM

====

molecular target: HLA-B*27:05; test: IEDB peptide-MHC binding, purified MHC/direct/fluorescence; filed as Kd, often an IC50 or EC50 that approximates it; bounds were set here for any values at or beyond the usual limits of such assays; details: source organism: Burkholderia mallei
metric: Kd

State its Kd on HLA-B*27:05: STYQPLPLY ≥ 20 µM

====

target: HLA-B*08:01; experiment: IEDB peptide-MHC binding, purified MHC/competitive/fluorescence; bounds were set here for any values at or beyond the usual limits of such assays; details: source organism: Vaccinia virus
This section presents sequences with their documented pIC50 values.
A value of pIC50 is the negative decimal logarithm of a concentration given in moles per litre.

Can you look up pIC50 on HLA-B*08:01 for GMLRFANPL ? 4.93

New cases:
What value of pIC50 on HLA-B*08:01 does FRAFRNLNV have? 5.21
